- Experimental Target: native mouse MET on living mouse cells (mouse, UniProt P16056 25-1379)
- Assay Remarks: cell-based or functional assay
Readings of cell scattering score, MLP29, 0.333 nM for the listed binders
Reported Endpoint: cell scattering score, MLP29, 0.333 nM (score 0-4)

Binder	Test Value
chimeric llama-human IgG1 mAb 71G2 (antibody, V domains shown) VH: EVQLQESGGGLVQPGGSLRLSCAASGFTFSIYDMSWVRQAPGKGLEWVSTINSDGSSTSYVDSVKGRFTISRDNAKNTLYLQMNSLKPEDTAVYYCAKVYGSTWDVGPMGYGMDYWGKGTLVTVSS VL: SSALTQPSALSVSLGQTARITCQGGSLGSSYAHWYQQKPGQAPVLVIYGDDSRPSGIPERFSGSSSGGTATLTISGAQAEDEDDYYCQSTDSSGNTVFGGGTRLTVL	4
chimeric llama-human IgG1 mAb 71C3 (antibody, V domains shown) VH: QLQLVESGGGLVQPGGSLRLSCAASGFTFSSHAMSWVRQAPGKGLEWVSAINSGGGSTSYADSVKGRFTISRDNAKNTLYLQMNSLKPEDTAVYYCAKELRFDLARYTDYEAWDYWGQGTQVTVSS VL: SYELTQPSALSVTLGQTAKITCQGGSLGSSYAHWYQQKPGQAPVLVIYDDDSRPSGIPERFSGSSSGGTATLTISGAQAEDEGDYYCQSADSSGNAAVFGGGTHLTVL	2
chimeric llama-human IgG1 mAb 71G3 (antibody, V domains shown) VH: QVQLVESGGGLVQPGGSLRVSCAASGFTFSTYYMSWVRQAPGKGLEWVSDIRTDGGTYYADSVKGRFTMSRDNAKNTLYLQMNSLKPEDTALYYCARTRIFPSGYDYWGQGTQVTVSS VL: QAVVTQEPSLSVSPGGTVTLTCGLSSGSVTTSNYPGWFQQTPGQAPRTLIYNTNSRHSGVPSRFSGSISGNKAALTIMGAQPEDEADYYCSLYPGSTTVFGGGTHLTVL	4

Reference source for all entries: patent US20210024639A1
